The measured values listed here are drawn from PubChem BioAssay (NCI).

Let's look at some compounds and their measured TGI.
test system: IGROV1 ovarian; experiment: NCI tumour cell line growth inhibition, 48 h

// known answers, use as guide
Compound	TGI
CC(C)CCN1c2nc(Nc3cc(F)c(O)c(F)c3)ncc2N(C)C(=O)C1C (stereo not given)	> 61.2 µM
CCn1c(-c2nonc2N)nc2c(C#CC(C)(C)O)nc(OC[C@H](N)c3ccccc3)cc21	7.23 µM
NNC(=S)N/N=C(\CC1OC(=O)c2ccccc21)c1ccccc1O (stereo not given)	> 100 µM
CN(C)/C=N/c1nc2c(ncn2C2OC(CO)C(O)C2O)c(=O)[nH]1 (stereo not given)	> 100 µM
C=C(CCC/C(C)=C/C=C/[C@]1(C)CCCc2ccoc21)CC(=O)O	> 100 µM
COC(=O)C1=C(O)c2cc(OC)c(OC)cc2C(c2ccc(OC)c(OC)c2)C1 (stereo not given)	> 100 µM
CN1CCN(CCOc2ccc(-c3cnc4c(-c5ccccc5F)cnn4c3)cc2)CC1	3.58 µM
CS(=O)(=O)O[C@H]1CN2C[C@@H](O)[C@@H](O)[C@H]2[C@H]1CO	> 100 µM
Cn1c2c(c3ccccc31)C1CCCCCCC1C1C(=O)OC(=O)C21 (stereo not given)	73.8 µM

Kindly note the recorded TGI for COC(=O)C1=C(C)NC2=C(C(=O)c3ccccc32)C1c1cn(-c2ccccc2)nc1-c1ccccc1 (stereo not given) , which is > 100 µM

----------
tested on: HCT-15 colon; experiment: NCI tumour cell line growth inhibition, 48 h
Let's look at some compounds and their measured TGI.
Use µM as the unit, but write only the number.

// known answers, use as guide
Compound	Tested on	Property	Assay result
Cn1nc(N)c2cc([C@@H]3Nc4ccc5[nH]ncc5c4[C@H]4C5CCC(C5)[C@@H]34)ccc21 (stereo not given in full)	HCT-15 colon	TGI	14
COc1ccc(N2C(=O)C(=O)N(c3ccccc3[N+](=O)[O-])C2=S)cc1	HCT-15 colon	TGI	40.5
CCN(CC)c1ccc2c(c1)OC(N)=C(C#N)C2c1cc(OC)c2c(c1)OCO2 (stereo not given)	HCT-15 colon	TGI	3.93
N#CC(=C1C=CC(=NO)C=C1)c1ccccc1	HCT-15 colon	TGI	12.3
CCN1CCN(C(c2ccc(C(F)(F)F)cc2)c2ccc3cccnc3c2O)CC1 (stereo not given)	HCT-15 colon	TGI	17.6
C=C1C(=O)O[C@@H]2C[C@@H]1CC/C(C)=C/CC/C(C)=C/CC[C@@]2(C)O	HCT-15 colon	TGI	51.4

Now look at this entry.
Kindly note the recorded TGI for C=C1CC[C@@H]2[C@](C)(COC(C)=O)[C@H](OC(C)=O)CC[C@@]2(C)[C@@H]1CC(Sc1ccccc1)C1=CCOC1=O (stereo not given in full) , which is 2.59

----------
Let's look at some compounds and their measured TGI.
system: SK-OV-3 ovarian; assay: NCI tumour cell line growth inhibition, 48 h

Compound	TGI
COC(=O)C1=C(C)NC2=C(C(=O)c3ccccc32)C1c1cn(-c2ccccc2)nc1-c1ccccc1 (stereo not given)	> 100 µM
O=C(O)C1C2C=CC(O2)C1C(=O)NCc1ccccn1 (stereo not given)	> 100 µM
Cc1c([N+](=O)[O-])ccc2c(NCCCN(C)C)ccnc12	> 100 µM
COC1(OC)CC2C(=O)N(Cc3ccccc3)C1C(S(=O)(=O)c1ccccc1)C2S(=O)(=O)c1ccccc1 (stereo not given)	54.2 µM

Now look at this entry.
Tested on SK-OV-3 ovarian, the item COC(=O)c1cc2c(s1)C(=O)c1ccccc1-2 showed TGI equal to > 100 µM
